Where do the numbers come from? From ChEMBL document CHEMBL1135587.

Biological target: C-C chemokine receptor type 3 (Homo sapiens)
Sequence (P51677 whole entry): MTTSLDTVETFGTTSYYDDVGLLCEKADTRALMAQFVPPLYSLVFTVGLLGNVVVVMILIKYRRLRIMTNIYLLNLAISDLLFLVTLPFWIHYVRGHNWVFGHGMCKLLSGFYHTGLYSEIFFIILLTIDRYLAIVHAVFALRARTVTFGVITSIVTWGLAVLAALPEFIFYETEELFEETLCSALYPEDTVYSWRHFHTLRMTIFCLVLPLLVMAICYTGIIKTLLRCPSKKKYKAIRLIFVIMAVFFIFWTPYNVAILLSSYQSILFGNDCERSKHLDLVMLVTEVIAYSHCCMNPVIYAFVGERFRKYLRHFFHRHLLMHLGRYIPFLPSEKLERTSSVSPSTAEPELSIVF
Test: Inhibitory activity against recombinant human Chemokine receptor type 3 (CCR3) expressed in chinese hamster ovary cells
Type: cell-based, CHO
pIC50: −log10 of the molar value.
Everything with pIC50 lower than 6 is n; everything else, including exactly 6, is y.

Kindly determine if pIC50 recorded for O=C(Nc1cc(F)ccc1F)Nc1ccccc1CN1CCC(C(=O)c2ccccc2)CC1 is above or exactly 6.
n

And the next one, C[N+]1(Cc2cc3c(cc2NC(=O)Nc2cccc(C#N)c2)OCO3)CCC(Cc2ccc(F)cc2)CC1 (stereo unspecified) ?
y

And the next one, N#Cc1cccc(NC(=O)Nc2c(CN3CCC(Cc4ccc(F)cc4)CC3)ccc3ccccc23)c1 ?
y

And the next one, O=C(Nc1ccccc1)Nc1ccccc1CN1CCC(Cc2ccc(F)cc2)CC1 ?
y

And the next one, O=C1CC2(CCc3ccccc32)C(=O)N1CC1CCN(CCc2ccccc2)CC1 (stereo unspecified) ?
n

And the next one, O=C(Nc1ccc2[nH]ncc2c1)Nc1ccccc1CN1CCC(Cc2ccccc2)CC1 ?
y

And the next one, c1ccc(CC2CCN(Cc3ccccc3)CC2)cc1 ?
n

And the next one, C[N+]1(Cc2cc(O)ccc2NC(=O)Nc2cccc(C#N)c2)CCC(Cc2ccccc2)CC1 (stereo unspecified) ?
y

And the next one, O=C(NCCc1ccc(F)cc1)Nc1ccccc1CN1CCN(Cc2ccccc2)CC1 ?
n

And the next one, O=C(NCCN1CCCCC1)NCC(CCCN1CCC(O)(c2ccc(Cl)cc2)CC1)(c1ccccc1)c1ccccc1 ?
n

And the next one, COc1cccc(NC(=O)Nc2cc(CO)ccc2CN2CCC(Cc3ccccc3)CC2)c1 ?
y

And the next one, CNC(=O)c1ccc(NC(=O)Nc2cccc(C(C)=O)c2)c(CN2CCC(Cc3ccc(F)cc3)CC2)c1 ?
y

And the next one, COC(=O)c1ccc(NC(=O)Nc2cccc(OC)c2)c(CN2CCC(Cc3ccc(F)cc3)CC2)c1 ?
y

And the next one, O=C(NCc1ccccc1)NCC(CCCN1CCC(O)(c2ccc(Cl)cc2)CC1)(c1ccccc1)c1ccccc1 ?
n

And the next one, CN(C)CCNC(=O)NCC(CCCN1CCC(O)(c2ccc(Cl)cc2)CC1)(c1ccccc1)c1ccccc1 ?
n

And the next one, COC(=O)c1ccc(NC(=O)Nc2cccc(C#N)c2)c(CN2CCC(Cc3ccc(F)cc3)CC2)c1 ?
y

And the next one, CNC(=O)NCC(CCCN1CCC(O)(c2ccc(Cl)cc2)CC1)(c1ccccc1)c1ccccc1 ?
n

And the next one, O=C(Nc1ccccc1)Nc1ccccc1C(O)CN1CCC(Cc2ccc(F)cc2)CC1 (stereo unspecified) ?
y

And the next one, O=C(Nc1ccccc1)Nc1ccccc1C(O)CN1CCC(Cc2ccccc2)CC1 (stereo unspecified) ?
y

And the next one, O=C(Nc1ccc2c[nH]nc2c1)Nc1ccccc1CN1CCC(Cc2ccccc2)CC1 ?
y

And the next one, O=C(NCC(CCCN1CCC(O)(c2ccc(Cl)cc2)CC1)(c1ccccc1)c1ccccc1)Nc1ccc(C(F)(F)F)cc1 ?
n

And the next one, O=C(NCC(CCCN1CCC(O)(c2ccc(Cl)cc2)CC1)(c1ccccc1)c1ccccc1)Nc1cc(F)ccc1F ?
n

And the next one, O=C(Nc1cccc(CN2CCC(Cc3ccccc3)CC2)c1)NC1CCN(Cc2ccccc2)CC1 ?
n

And the next one, COC(=O)N1CCC(NC(=O)NCC(CCCN2CCC(O)(c3ccc(Cl)cc3)CC2)(c2ccccc2)c2ccccc2)CC1 ?
n

And the next one, COc1cccc(NC(=O)Nc2cc3c(cc2CN2CCC(Cc4ccc(F)cc4)CC2)OCO3)c1 ?
y
